Test system: HCC 2998
Assay: NCI tumour cell line growth inhibition, 48 h
Active and inactive are the calls of the source. Cut-off read from the data, not from the text of the source: active = GI50 up to about 1.1 µM and inactive = higher.

# COMPOUND, TESTED TARGET, GI50
records = [
    ("COc1ccc(C2N(NC(=O)c3ccncc3)C(=O)CS2(=O)=O)cc1F (stereo unspecified)", "HCC 2998", "> 100 µM (inactive)"),
    ("C(=N\\OCCc1ccccc1)/c1cccnc1", "HCC 2998", "> 100 µM (inactive)"),
    ("C=CCOC(C)n1c(C)cc(=O)n(C(C)OCC=C)c1=O (stereo unspecified)", "HCC 2998", "> 100 µM (inactive)"),
    ("CCCCCCOP(=O)(OCCCCCC)OC(C(=O)OC)C(F)(F)F (stereo unspecified)", "HCC 2998", "> 100 µM (inactive)"),
    ("Cc1nc2ccccc2n1Cc1nnc(N)o1", "HCC 2998", "> 100 µM (inactive)"),
    ("O=C1CN2C(Cl)(Cl)C2(c2ccccc2)c2cc(Cl)ccc2N1CC1CC1 (stereo unspecified)", "HCC 2998", "18.7 µM (inactive)"),
]

---

Test system: M19-MEL
Test: NCI tumour cell line growth inhibition, 48 h
Active and inactive are the calls of the source. Cut-off read from the data, not from the text of the source: active = GI50 up to about 1.1 µM and inactive = higher.
Classes used: T (active), F (inactive)

# COMPOUND, GROUP
measured = [
    ("Cc1ccc(S(=O)(=O)N/N=C(\\c2nc3ccc([N+](=O)[O-])cc3[nH]c2=O)C(O)c2ccc([N+](=O)[O-])cc2)cc1 (configuration not stated)", "F"),
    ("Cc1ccc(C)c(N2C(=O)C(=O)C(c3nc4ccccc4o3)/C(=N/N)C2=O)c1 (configuration not stated)", "F"),
    ("CCN(CC)CCCNc1nccc2c(C)c3c(cc12)c1cnccc1n3C", "T"),
    ("O=c1ccc2cc3ccc4cccc5ccc(c2o1)c3c45", "F"),
    ("CCN(CC)CC(C(=O)Nc1c(C)cccc1C)/C(C)=N/NC(N)=S (configuration not stated)", "F"),
    ("CC(C)(C)C(=O)OCC1C(=O)OCC1C(=O)N1Cc2cc3ccccc3nc2C1 (configuration not stated)", "F"),
    ("Nc1ccn(CCOC(c2ccccc2)P(=O)(O)O)c(=O)n1 (configuration not stated)", "F"),
    ("CC1=C(C(=O)Nc2ccccc2)C(c2ccc([N+](=O)[O-])cc2)C(C(=O)Nc2ccccc2)=C(C)N1", "F"),
    ("O=C(CC1(O)C(=O)Nc2c(Cl)ccc(Cl)c21)c1ccc2ccccc2c1 (configuration not stated)", "F"),
    ("O=C1c2ccccc2C(=O)c2cc3c(cc21)C[S+]([O-])C3", "F"),
    ("C=CCN(N=O)C(=O)NCCCC(NC(C)=O)C(=O)NCc1ccccc1 (configuration not stated)", "F"),
    ("COC(=O)C1=C(C(=O)OC)N(C(C)C)[C@H]2C(C(=O)OC)=C(C(=O)OC)N(C(C)C)[C@@H]12", "F"),
    ("CN1C(=O)CC(c2cccc(C3CC(=O)N(C)C3=O)n2)C1=O (configuration not stated)", "F"),
    ("O=C(O)C12C=CC(C1)c1ccccc12 (configuration not stated)", "F"),
    ("CC(=O)NC(CCCCNC(=O)N(C)N=O)C(=O)NCc1ccccc1 (configuration not stated)", "F"),
    ("COc1cc2ccc(CC(N)=O)cc2cc1OC", "F"),
    ("O=C1CN2C(Cl)(Cl)C2(c2ccccc2)c2cc(Cl)ccc2N1CC1CC1 (configuration not stated)", "F"),
    ("[O-][Cl+3]([O-])([O-])[O-].c1ccc(-c2csc3c4ccccc4c4ccccc4[n+]23)cc1", "F"),
    ("COC(=O)C(CC(C)=O)CS(=O)(=O)CC(=O)C(=O)Nc1cccc([N+](=O)[O-])c1 (configuration not stated)", "F"),
    ("CC(C)(C)C(=O)Cc1cc2c(cc1C(=O)O)S(=O)(=O)NC(C(C)(C)C)=C2", "F"),
    ("COc1ccc(Cc2nccc3cc(OC)c(OC)cc23)cc1", "F"),
    ("COc1ccc(NS(=O)(=O)c2ccc(/N=C3\\C=C(Nc4ccc(S(=O)(=O)Nc5ccc(OC)nn5)cc4)C(=O)c4ccccc43)cc2)nn1", "F"),
    ("CCCCCN(CCCCC)C(=O)[C@@H](CCC(=O)O)NC(=O)c1cc2ccccc2[nH]1", "F"),
    ("COC1OC(C)C(OC(=O)C(C)(C)C)C(C)(O)C1O (configuration not stated)", "F"),
    ("CCCCN(CCCC)CC(C(=O)Nc1ccccc1)/C(C)=N\\NC(=O)c1ccncc1 (configuration not stated)", "F"),
    ("Clc1cc(Cl)cc(Nc2nc3ccccc3nc2-c2cccs2)c1", "F"),
    ("CS/C(=N\\C(=S)Nc1ccccc1)Nc1ccccc1", "F"),
    ("FC(F)(F)c1ccc2nc(Nc3ccc(Cl)c(Cl)c3)c(-c3ccccc3)nc2c1", "F"),
    ("CC[C@](O)(C(=O)O)c1cc2n(c(=O)c1CO)Cc1cc3ccccc3nc1-2", "T"),
    ("CCOC(=O)C(Oc1ccc(OC)c2c1C(=O)CCC2)c1ccccc1 (configuration not stated)", "F"),
    ("O=C1OC(CC(=O)c2ccccc2Cl)C(Cl)=C1Cl (configuration not stated)", "F"),
    ("O=c1[nH]c2cccccc-2c1-c1nc2ccccc2[nH]1", "F"),
]

---

System: HL-60
Experiment: NCI tumour cell line growth inhibition, 48 h
Calls of active or inactive are those of the source. Rule as the data show it: active = GI50 up to about 1.1 µM and inactive = higher.
Classes used: T for active, F for inactive

# COMPOUND, GROUP
data = [
    ("COC(=O)C1=C(C(=O)OC)N(C(C)C)[C@H]2C(C(=O)OC)=C(C(=O)OC)N(C(C)C)[C@@H]12", "F"),
    ("CCn1c(-c2cc(OC)cc(OC)c2)nc2c1C(=O)c1ccccc1C2=O", "F"),
    ("O=C1c2cccnc2-c2nccc3c2c1nc1cc(Br)ccc13", "T"),
    ("c1ccc(C2CC(NC3CCCCC3)=Nc3ccccc3N2)cc1 (stereo not drawn)", "F"),
    ("CCOC(=O)c1nc2ccccc2nc1Nc1ccc(OC)cc1", "F"),
    ("CC1[C@@H]2CC=C3C4CCC5Cc6nc7c(nc6C[C@@]5(C)C4CC(=O)[C@]32CO[C@@]1(O)C(O)CC(C)(C)O)CC1CCC2C3=C[C@H]4O[C@@]5(O[C@@](C)(CO)C[C@@H]5O)C(C)[C@@]4(O)[C@]3(C)[C@@H](O)CC2[C@]1(C)C7 (stereo partly drawn)", "T"),
    ("COc1ccc(C(=O)C(c2ccc(OC)cc2)C2(O)C(=O)Nc3c(Cl)cc(Cl)cc32)cc1 (stereo not drawn)", "F"),
    ("CCOC(=O)c1c(C)[n+]([O-])c2cc(Cl)c(Cl)cc2[n+]1[O-]", "T"),
]

---

Tested on: CCRF-CEM
Assay: NCI tumour cell line growth inhibition, 48 h
The source made the active and inactive calls. No stated cut-off is given here; in the data, active = GI50 up to about 1.1 µM and inactive = higher.
Classes used: T = active, F = inactive

# MOLECULE, TESTED TARGET, GROUP
measured = [
    ("COc1cc(/C=C\\c2ccc(OC(C)=O)cc2)cc(OC)c1OC", "CCRF-CEM", "F"),
    ("O=CN1CCN(C(=O)c2ccc(Cl)cc2Cl)C1=S", "CCRF-CEM", "F"),
    ("CC1[C@@H]2CC=C3C4CCC5Cc6nc7c(nc6C[C@@]5(C)C4CC(=O)[C@]32CO[C@@]1(O)C(O)CC(C)(C)O)CC1CCC2C3=C[C@H]4O[C@@]5(O[C@@](C)(CO)C[C@@H]5O)C(C)[C@@]4(O)[C@]3(C)[C@@H](O)CC2[C@]1(C)C7 (stereo partly specified)", "CCRF-CEM", "T"),
    ("O=c1[nH]c2cccccc-2c1-c1nc2ccccc2[nH]1", "CCRF-CEM", "F"),
    ("COc1ccc(-c2c3c(n(C4OC(CO)C(O)C(O)C4O)c(=S)c2C#N)CCC3)cc1 (stereo unspecified)", "CCRF-CEM", "F"),
    ("O=C(CSc1nc2ccc(I)cc2c(=O)n1Cc1ccccc1)NN1C(=O)CCC1=O", "CCRF-CEM", "F"),
    ("O=C1CCCCC/C1=C\\c1cccc(F)c1", "CCRF-CEM", "F"),
    ("O=C1CC(=O)NC(NN2C(=O)CSC2C(=O)c2ccco2)=N1 (stereo unspecified)", "CCRF-CEM", "F"),
    ("Clc1cc(Cl)cc(Nc2nc3ccccc3nc2-c2cccs2)c1", "CCRF-CEM", "F"),
    ("Cc1nc(O)nc2nc3cc(Cl)cc(Cl)c3c(NC(C)(CO)CO)c12", "CCRF-CEM", "F"),
    ("O=C(NC12CC3CC(CC(C3)C1)C2)C(=O)c1c[nH]c2ccc(Cl)cc12", "CCRF-CEM", "F"),
    ("Oc1c(Br)cc(/C=C/c2ccnc(/C=C/c3cc(Br)c(O)c(Br)c3)c2)cc1Br", "CCRF-CEM", "F"),
    ("OCCN(CCO)c1cccc(N(CCO)CCO)n1", "CCRF-CEM", "F"),
    ("S=C1N=C2C(=N1)n1c3c(c4ccccc41)CCCC23 (stereo unspecified)", "CCRF-CEM", "F"),
    ("CCOC(=O)CCc1c(C)nc2c(C)c3c([nH]c4ccc(Cl)cc43)c(C)c2c1O", "CCRF-CEM", "F"),
    ("CN(C)c1ccc(/C=C(\\C#N)c2nc(-c3cc4ccccc4oc3=O)cs2)cc1", "CCRF-CEM", "F"),
    ("Cc1cn(C2CC(n3cc(Cn4cc(F)c(=O)[nH]c4=O)nn3)C(CO)O2)c(=O)[nH]c1=O (stereo unspecified)", "CCRF-CEM", "F"),
    ("C/C(=N\\NC(=S)N1CCCC1)c1nc2cccnc2[nH]1", "CCRF-CEM", "T"),
    ("N/C(=N\\O)N/N=C/c1ccc2c(c1)OCO2", "CCRF-CEM", "F"),
    ("CCCCCN(CCCCC)C(=O)[C@@H](CCC(=O)O)NC(=O)c1cc2ccccc2[nH]1", "CCRF-CEM", "F"),
    ("CCOC(=O)c1cc2cc(Cc3ccc4[nH]c(C(=O)OCC)cc4c3)ccc2[nH]1", "CCRF-CEM", "F"),
]
